test: NCI Yeast Anticancer Drug Screen. Data for the mlh1 rad18 strain (AID 175); details: S. cerevisiae mlh1 rad18 strain growth inhibition; at 50.0 µM (retest, dose inferred, filed as 5.0); hits give high values
About 79,000 compounds went through this panel and 15% of them were active in at least one assay; those are over-represented in the sample as a whole.
endpoint: growth inhibition (%)
# value in %; strip the unit string

Which growth inhibition value belongs to `CC(=O)Nc1ccc(O)c(=O)cc1` ?
97

What would you report for `CCCCCN(CCCCC)CCNc1ccc(C)c2sc3ccccc3c(=O)c12` ?
97

What would you report for `CC1(C)c2ccccc2Cc2cc3ccccc3nc21` ?
98

What would you report for `CCCCCCCCCCCCCC(=O)NO` ?
97

What would you report for `COC(=O)C(=[N+]=[N-])C(=O)c1ccc(Cl)cc1` ?
18

What would you report for `CC1=CC(=O)C(O)=C/C1=C\C=C\c1ccccc1` ?
98

What would you report for O=C1C2C3C=CC(C3)C2C(=O)C2C3C=CC(C3)C12 (configuration not stated) ?
98

###

Assay: NCI Yeast Anticancer Drug Screen. Data for the mlh1 rad18 strain (AID 175)
Conditions: S. cerevisiae mlh1 rad18 strain growth inhibition; at 50.0 µM
Experimental: Growth inhibition of yeast strains with defined genetic alterations is measured as a screen for potential anti-cancer activity. Selected strains with alterations in DNA damage repair or cell cycle control were exposed to compounds and growth inhibition was measured relative to vehicle treated controls. The strain used in this assay is mlh1 rad18
Compounds without any hit were thinned out: in the full panel of roughly 79,000, 15% have a hit. Calls of active or inactive are those of the source. No stated cut-off is given here; in the data, active means growth inhibition above about 70%; inactive means the rest.
I would appreciate it if you answered using one of these outcomes: yes (1) for active, no (0) for inactive

Solved cases (2 shown):
compound: CC(C)Sc1nc(NC(=O)N(CCCl)N=O)cc(=O)[nH]1
classAssignment: no (0)

compound: O=[N+]([O-])c1ccc2nc(-c3ccc(Cl)cc3)[nH]c2c1
classAssignment: yes (1)

Now consider a different compound.
Test call for this compound, please: `O=C(O)/C(=C/c1ccc(Cl)cc1)c1ccccc1`
no (0)

###

assay: NCI Yeast Anticancer Drug Screen. Data for the rad50 strain (AID 155);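 note: 0% = growth of vehicle-only cultures of the same strain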; settings: S. cerevisiae rad50 strain growth inhibition; at 50.0 µM (retest, dose inferred, filed as 5.0)
The panel holds about 79,000 compounds, 15% with a hit somewhere; the sample as a whole holds those more often. Calls of active or inactive are those of the source. No stated cut-off is given here; in the data, active means growth inhibition above about 70%; inactive means the rest.
I would appreciate it if you answered using one of these outcomes: active, inactive

molecule: COC(=O)c1nc(=S)[nH]c(C(=O)OC)c1C(=O)c1c(C)[nH]c2ccccc12
classAssignment: inactive
--
molecule: CN(C)CC1CC/C(=C\c2ccc(Cl)c(Cl)c2)C1=O (configuration not stated)
classAssignment: active
--
molecule: O=C(COc1ccccc1)Oc1c(Cl)c(Cl)c(Cl)c(Cl)c1Cl
classAssignment: active
--
molecule: O=S(=O)(Nc1ccccn1)c1ccc(N=Cc2c3ccccc3nc3cc(Cl)ccc23)cc1
classAssignment: inactive
--
molecule: CCc1cc2c(cc1O)CC[C@@H]1[C@@H]2CC[C@]2(C)[C@@H](O)CC[C@@H]12
classAssignment: active
--
molecule: COc1cc(O)c2c(c1)C(=O)C1=C(C2=O)[C@@H](C)OC(C)[C@H]1O (some centres not stated)
classAssignment: active
--
molecule: Cc1ccc(C(=O)OCCN2CCN(c3ccccc3)CC2)c([N+](=O)[O-])c1OCc1ccccc1
classAssignment: inactive
--
molecule: Brc1c2nc3ccccc3nc2n2ccc3ccccc3c12
classAssignment: inactive
--
molecule: CCN(CC)c1c(C(=O)/C=C/c2ccc(F)cc2)c(-c2ccccc2)nn(C)c1=O
classAssignment: inactive
--
molecule: OCC(O)C(O)C(O)/C=N\Nc1ccccc1 (configuration not stated)
classAssignment: inactive

Test call for this molecule, please: `CN(C)c1ccc(N=Nc2ccc(/C=C3\CCOC3=O)cc2)cc1`
inactive

What would you report for `NCc1cccc(O)c1O` ?
inactive

What would you report for O=C1CSC(c2ccc([N+](=O)[O-])cc2)N1c1ccc(-c2ccc(-n3c(-c4ccccc4)nc4ccccc4c3=O)cc2)cc1 (configuration not stated) ?
active
